Tested on: HL-60(TB) leukemia
Test: NCI-60 one-dose screen, 48 h
Conditions: 10 µM unless noted
Compounds without any hit were thinned out: in the full panel of roughly 83,000, 20% have a hit. The source made the active and inactive calls. Rule for the calls: active = growth percent below 10; inactive = the rest.
Reply using exactly one outcome from t for active, f for inactive

Recorded call for COc1ccc(NP2(=O)OCC(C)(N)CO2)cc1 (stereo unspecified) ?
f

Recorded call for O=C(Cn1cncn1)Nc1ccc(-c2nc3ccccc3s2)cc1 ?
f

Recorded call for O=[N+]([O-])c1ccc(-c2ncc(-c3ccc(Br)cc3)o2)cc1 ?
f

Recorded call for O=C(c1ccc(OCCN2CCCCC2)cc1)c1c(-c2ccc(O)cc2)sc2cc(O)ccc12 ?
f

Recorded call for CCCCC(CCCCCC(CCCC)NCc1ccc2c(c1)OCO2)NCc1ccc2c(c1)OCO2 (stereo unspecified) ?
t

Recorded call for Cc1cccc(OCC(O)CN2CCN(c3ccc(Cl)cc3)CC2)c1 (stereo unspecified) ?
f

----------
System: HL-60(TB) leukemia
Experiment: NCI-60 one-dose screen, 48 h (100 = growth as untreated, 0 = no growth, -100 = all killed)
Settings: 10 µM unless noted
The panel holds about 83,000 compounds, 20% with a hit somewhere; the sample as a whole holds those more often. The source made the active and inactive calls. Rule for the calls: active = growth percent below 10; inactive = the rest.
Hi there, I'd appreciate the recorded growth for every entry that follows.

Reference set, count: 10
>  <molecule>
Clc1ccc(/C=C2\CCCC3C2=Nc2ccccc2NC3c2ccc(Cl)cc2)cc1 (stereo not drawn)

>  <experimentalTarget>
HL-60(TB) leukemia

>  <result>
73.9% (inactive)

$$$$
>  <molecule>
Cc1ccc2c(C(C[N+](=O)[O-])c3ccccc3)c(-c3ccccc3)[nH]c2c1 (stereo not drawn)

>  <experimentalTarget>
HL-60(TB) leukemia

>  <result>
-10.4% [9.5 µM] (active)

$$$$
>  <molecule>
CCOC(=O)C1=C(C)NC(SCc2nnc(-c3ccc(Cl)cc3)o2)=NC1c1ccc(Cl)cc1 (stereo not drawn)

>  <experimentalTarget>
HL-60(TB) leukemia

>  <result>
21.4% (inactive)

$$$$
>  <molecule>
COc1ccc(C(=O)NNc2nc(Cl)nc(N3CCN(C(c4ccccc4)c4ccccc4)CC3)n2)cc1

>  <experimentalTarget>
HL-60(TB) leukemia

>  <result>
21.3% (inactive)

$$$$
>  <molecule>
C=C(C)[C@H]1CC/C(C)=C/CC[C@]2(C)O[C@H]2CC/C(C=O)=C\C1O (stereo partly drawn)

>  <experimentalTarget>
HL-60(TB) leukemia

>  <result>
253% (inactive)

$$$$
>  <molecule>
ONc1nc(NO)c2[nH]cnc2n1

>  <experimentalTarget>
HL-60(TB) leukemia

>  <result>
15.1% (inactive)

$$$$
>  <molecule>
CCSc1ccnc(N)n1

>  <experimentalTarget>
HL-60(TB) leukemia

>  <result>
108% (inactive)

$$$$
>  <molecule>
Clc1cc(Cl)cc(Nc2ccc3cc(OCCCN4CCOCC4)ccc3n2)c1

>  <experimentalTarget>
HL-60(TB) leukemia

>  <result>
26.7% (inactive)

$$$$
>  <molecule>
COc1ccc(-n2cc(-c3cc(OC)c(OC)c(OC)c3)n(C(C)=O)c2=O)cc1

>  <experimentalTarget>
HL-60(TB) leukemia

>  <result>
126% (inactive)

$$$$
>  <molecule>
COc1cc(/C=C/c2cc(/C=C/c3ccc(O)c(OC)c3)n(C(=O)Nc3ccccc3Cl)n2)ccc1O

>  <experimentalTarget>
HL-60(TB) leukemia

>  <result>
-24.3% (active)

$$$$

Batch request: growth for each of the following molecules.
1. CC(C)C1=NOC(=O)C1=Cc1cn(-c2ccccc2)nc1-c1cccc([N+](=O)[O-])c1
2. CCCCCCC(C)c1ccccc1O (stereo not drawn) (tested in a mixture with another compound)
3. CC(C)(C)c1ccc(N2CSC(=S)N(c3ccc(C(C)(C)C)cc3)C2)cc1
4. CC(=O)[C@H]1CC[C@]2(C)[C@@H]1CC[C@@H]1[C@@]3(C)CC(CCC#N)(CCC#N)C(=O)C(C)(C)[C@@H]3CC[C@]12C
5. COc1ccc(OCC(=O)Nc2ccc(-c3nc4ccccc4s3)cc2C)cc1
6. C=C(CNCCc1ccc(O)cc1)[C@@H]1CC[C@]2(COC3CCCCO3)CC[C@]3(C)[C@H](CC[C@@H]4[C@@]5(C)CCC(N)C(C)(C)[C@@H]5CC[C@]43C)[C@@H]12 (stereo partly drawn)
7. CCCCCCNC(=O)Oc1ccc(/C(=C(\C)c2ccccc2)c2ccc(OCCN3CCCCC3)cc2)cc1
8. COc1ccccc1S(=O)(=O)Nc1ccc2c3c(cc(CCC(=O)NCCCCNc4cccc5c4C(=O)N(C4CCC(=O)NC4=O)C5=O)cc13)C(=O)N2C (stereo not drawn)

1. -4.77% (active)
2. 113% (inactive)
3. 92.7% (inactive)
4. 103% (inactive)
5. 48.2% (inactive)
6. -75.6% (active)
7. 31.1% (inactive)
8. -1.81% (active)
